- Tested on: biotinyl-Met-oxazolone
- experiment: self-aminoacylation, catalytic enhancement (BMO) (fold over background); higher = more active; k-Seq, kA / k0A0; sequences stand for … in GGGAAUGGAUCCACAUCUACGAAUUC…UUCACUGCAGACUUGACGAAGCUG
Fewer inactive variants are shown than the library holds.
Recorded self-aminoacylation by entry

[
  {
    "polymer-sequence": "AUUCACCUAGGUCUUCGCGUG [Fam2.2 aminoacylation ribozyme variant]",
    "self-aminoacylation": 4.3
  },
  {
    "polymer-sequence": "AUUAGCCUGAUCAUCGAGUGA [Fam2.1 aminoacylation ribozyme variant]",
    "self-aminoacylation": 10.4
  },
  {
    "polymer-sequence": "ACUACCCUGGUCAUUGAGUGA [Fam2.1 aminoacylation ribozyme variant]",
    "self-aminoacylation": 7.75
  },
  {
    "polymer-sequence": "AUUCUCCUAGCUCAUCGGGUG [Fam2.2 aminoacylation ribozyme variant]",
    "self-aminoacylation": 3.24
  },
  {
    "polymer-sequence": "CUACUUUAAACGAUCGGUCUG [Fam1A.1 aminoacylation ribozyme variant]",
    "self-aminoacylation": 0.885
  },
  {
    "polymer-sequence": "AAGUUGGCUCAUAGUCGCAAG [Fam3.1 aminoacylation ribozyme variant]",
    "self-aminoacylation": 1.71
  },
  {
    "polymer-sequence": "AUUACCCUGGUCAUAGGGUGA [Fam2.1 aminoacylation ribozyme variant]",
    "self-aminoacylation": 6.67
  },
  {
    "polymer-sequence": "CCACCCUUCAAGCAAUCGGUA [Fam1B.1 aminoacylation ribozyme variant]",
    "self-aminoacylation": 1.38
  },
  {
    "polymer-sequence": "CUACUUGAAACAAUCGGUCUC [Fam1A.1 aminoacylation ribozyme variant]",
    "self-aminoacylation": 0.827
  },
  {
    "polymer-sequence": "CCACACUUCAAGCAGCCGGUC [Fam1B.1 aminoacylation ribozyme variant]",
    "self-aminoacylation": 1.32
  },
  {
    "polymer-sequence": "AUUAACCUAAGUCAUCGGGUG [Fam2.2 aminoacylation ribozyme variant]",
    "self-aminoacylation": 8.41
  },
  {
    "polymer-sequence": "CUACUUCAAACAAUCGGACAG [Fam1A.1 aminoacylation ribozyme variant]",
    "self-aminoacylation": 0.718
  },
  {
    "polymer-sequence": "AUUACACUGAUCAUCGAGUGA [Fam2.1 aminoacylation ribozyme variant]",
    "self-aminoacylation": 6.59
  },
  {
    "polymer-sequence": "CUACCUCAAACAAUCGGUCUA [Fam1A.1 aminoacylation ribozyme variant]",
    "self-aminoacylation": 1.16
  },
  {
    "polymer-sequence": "CUCCUUCAAACCAUCGGUCUG [Fam1A.1 aminoacylation ribozyme variant]",
    "self-aminoacylation": 0.805
  },
  {
    "polymer-sequence": "AUUCAGCCAGGUCAUCGGGUG [Fam2.2 aminoacylation ribozyme variant]",
    "self-aminoacylation": 8.99
  },
  {
    "polymer-sequence": "AAGUUAGCUAAUAGUCGCAUG [Fam3.1 aminoacylation ribozyme variant]",
    "self-aminoacylation": 1.07
  },
  {
    "polymer-sequence": "AAGUUUCCUAAAAGUCGCAAG [Fam3.1 aminoacylation ribozyme variant]",
    "self-aminoacylation": 1.64
  },
  {
    "polymer-sequence": "CUACUUAAGACAAUCGGUCUG [Fam1A.1 aminoacylation ribozyme variant]",
    "self-aminoacylation": 0.909
  },
  {
    "polymer-sequence": "CCAAACUUCAAGCAAUCGGCC [Fam1B.1 aminoacylation ribozyme variant]",
    "self-aminoacylation": 2.21
  },
  {
    "polymer-sequence": "AAUUUUGCUAAUAGUCGCAAC [Fam3.1 aminoacylation ribozyme variant]",
    "self-aminoacylation": 1.41
  },
  {
    "polymer-sequence": "UUUCACCUAGGUCCUCGGGUG [Fam2.2 aminoacylation ribozyme variant]",
    "self-aminoacylation": 4.17
  },
  {
    "polymer-sequence": "AUUACCCUGGUCAUCGGGUGA [Fam2.1 aminoacylation ribozyme variant]",
    "self-aminoacylation": 122
  },
  {
    "polymer-sequence": "AAGGUUGCUAAUAGUCGCAAA [Fam3.1 aminoacylation ribozyme variant]",
    "self-aminoacylation": 1.28
  }
]

###

- Tested on: biotinyl-Ile-oxazolone
- experiment: self-aminoacylation, catalytic enhancement (BIO) (fold over background); higher = more active; k-Seq, kA / k0A0; sequences stand for … in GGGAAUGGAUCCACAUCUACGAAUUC…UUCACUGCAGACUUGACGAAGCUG
This sample holds only a part of the variants without activity.
Use class 1 when the recorded self-aminoacylation is no lower than 1; use class 0 when it is lower.

[
  {
    "polymer-sequence": "CCAUACUUCAAGCAAUCGGUG [Fam1B.1 aminoacylation ribozyme variant]",
    "label-class": "class 1"
  },
  {
    "polymer-sequence": "GUUACCCUGGUGAUCGAGUGA [Fam2.1 aminoacylation ribozyme variant]",
    "label-class": "class 1"
  },
  {
    "polymer-sequence": "GUGCUUCAAACAAUCGGUCUG [Fam1A.1 aminoacylation ribozyme variant]",
    "label-class": "class 1"
  },
  {
    "polymer-sequence": "AUUACCCUGGUCAGCGAGUAA [Fam2.1 aminoacylation ribozyme variant]",
    "label-class": "class 1"
  },
  {
    "polymer-sequence": "AAGUUUACUAAUAGUCGCAAG [Fam3.1 aminoacylation ribozyme variant]",
    "label-class": "class 1"
  },
  {
    "polymer-sequence": "AAGGUUGCUAAUAAUCGCAAG [Fam3.1 aminoacylation ribozyme variant]",
    "label-class": "class 1"
  },
  {
    "polymer-sequence": "AUUACCCUAGUCAUCGAGCGA [Fam2.1 aminoacylation ribozyme variant]",
    "label-class": "class 1"
  },
  {
    "polymer-sequence": "CUACUUCAAGCUAUCGGUCUG [Fam1A.1 aminoacylation ribozyme variant]",
    "label-class": "class 0"
  },
  {
    "polymer-sequence": "GUUACCCUGGUCAUCAAGUGA [Fam2.1 aminoacylation ribozyme variant]",
    "label-class": "class 1"
  },
  {
    "polymer-sequence": "AUUCGCCUAGGUCCUCGGGUG [Fam2.2 aminoacylation ribozyme variant]",
    "label-class": "class 1"
  },
  {
    "polymer-sequence": "AUUCACCUUGGUCAACGGGUG [Fam2.2 aminoacylation ribozyme variant]",
    "label-class": "class 1"
  },
  {
    "polymer-sequence": "CUACUUCAAACAGUUGGUCUG [Fam1A.1 aminoacylation ribozyme variant]",
    "label-class": "class 0"
  },
  {
    "polymer-sequence": "CCACAUUUCAGGCAAUCGGUC [Fam1B.1 aminoacylation ribozyme variant]",
    "label-class": "class 1"
  },
  {
    "polymer-sequence": "GUUAACCUAGGUCAUCGGGUG [Fam2.2 aminoacylation ribozyme variant]",
    "label-class": "class 1"
  },
  {
    "polymer-sequence": "CGUCACCUAGGUCAUCGGGUG [Fam2.2 aminoacylation ribozyme variant]",
    "label-class": "class 1"
  },
  {
    "polymer-sequence": "CUUCACCUAGGUCAUCGGGUU [Fam2.2 aminoacylation ribozyme variant]",
    "label-class": "class 1"
  },
  {
    "polymer-sequence": "CUACUUCAGACAAUCGGUCUU [Fam1A.1 aminoacylation ribozyme variant]",
    "label-class": "class 0"
  },
  {
    "polymer-sequence": "AUUACCCUGGUCUUCGAAUGA [Fam2.1 aminoacylation ribozyme variant]",
    "label-class": "class 0"
  },
  {
    "polymer-sequence": "CUACUUCCUACAAUCGGUCUG [Fam1A.1 aminoacylation ribozyme variant]",
    "label-class": "class 0"
  },
  {
    "polymer-sequence": "AUUCCCCUAGUCAUCGAGUGA [Fam2.1 aminoacylation ribozyme variant]",
    "label-class": "class 1"
  },
  {
    "polymer-sequence": "ACACACUUCAAGCAAUCGGAC [Fam1B.1 aminoacylation ribozyme variant]",
    "label-class": "class 1"
  },
  {
    "polymer-sequence": "AAGUUUGCUAAUAGAGGCAAG [Fam3.1 aminoacylation ribozyme variant]",
    "label-class": "class 0"
  },
  {
    "polymer-sequence": "CCACACUUGAAGCAAUCGGUA [Fam1B.1 aminoacylation ribozyme variant]",
    "label-class": "class 1"
  },
  {
    "polymer-sequence": "AUUCACCUAGGUGAUUGGGUG [Fam2.2 aminoacylation ribozyme variant]",
    "label-class": "class 1"
  },
  {
    "polymer-sequence": "AAGUUUGGUAACAGUCGCAAG [Fam3.1 aminoacylation ribozyme variant]",
    "label-class": "class 1"
  },
  {
    "polymer-sequence": "CCGCACUUCAAGUAAUCGGUC [Fam1B.1 aminoacylation ribozyme variant]",
    "label-class": "class 1"
  },
  {
    "polymer-sequence": "CUACUUCAAAAAAUCGGUCCG [Fam1A.1 aminoacylation ribozyme variant]",
    "label-class": "class 0"
  },
  {
    "polymer-sequence": "CUACUUCAAACAAGCCGUCUG [Fam1A.1 aminoacylation ribozyme variant]",
    "label-class": "class 0"
  },
  {
    "polymer-sequence": "AUUCAGCUAAGUCAUCGGGUG [Fam2.2 aminoacylation ribozyme variant]",
    "label-class": "class 1"
  }
]
